B1: library; numbered along this chain (parent)
chain: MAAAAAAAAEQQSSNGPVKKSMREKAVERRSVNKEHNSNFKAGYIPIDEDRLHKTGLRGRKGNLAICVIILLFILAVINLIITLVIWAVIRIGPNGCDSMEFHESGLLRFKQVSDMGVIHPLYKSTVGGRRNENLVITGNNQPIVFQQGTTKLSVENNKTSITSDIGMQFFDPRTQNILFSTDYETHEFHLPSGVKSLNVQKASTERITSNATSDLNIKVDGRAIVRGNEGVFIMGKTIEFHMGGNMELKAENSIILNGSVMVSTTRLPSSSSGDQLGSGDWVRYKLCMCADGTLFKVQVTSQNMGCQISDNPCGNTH

# Variants of: B1
# PROTOCOL: SGCB cell-surface expression functional score (HA stain, bin4 vs bin1, normalised to synonymous) (log10 ratio); higher = more cell-surface SGCB (functional)
ASSAY_METRIC: SGCB cell-surface expression functional score (log10)

# MUTANT_LABEL, EXPERIMENTAL_VALUE
rows = [
    ("D221L", 0.62),
    ("F241A", 0.14),
    ("L153K", -1.12),
    ("K124A", -0.41),
    ("F171V", -0.07),
    ("A2Y", 0.14),
    ("K237I", 0.24),
    ("V145S", -0.31),
    ("K124T", 0.31),
    ("C290D", 0.2),
    ("S197W", 0.4),
    ("F189A", -0.91),
    ("D115S", -1.55),
    ("K159E", -0.7),
    ("C97F", -1.5),
    ("T186C", -0.92),
    ("K237E", 0.47),
    ("N95E", 0.05),
    ("S154P", -1.03),
    ("G231F", -0.12),
    ("I208W", -1.04),
    ("P143E", -0.73),
]
